tested on: Tetranychus cinnabarinus mite eggs; assay: Activity against mite eggs, dipping method on bean seedling leaves; assay type: in vivo; settings: Tetranychus cinnabarinus, 96 h, read-out: mortality of mite eggs (%), 1 mg/L; checked after 4 days
quantity-kind: mortality at 1 µg/mL (%)

1. Cc1ccc2c(ccn2Cc2ccc(C3COC(c4c(F)cccc4F)=N3)cc2)c1 (stereo not drawn)
50
2. O=S(=O)(Oc1ccc(C2COC(c3c(F)cccc3F)=N2)cc1)c1ccc(Cl)cc1 (stereo not drawn)
70
3. O=S(=O)(Oc1ccc(C2COC(c3c(F)cccc3F)=N2)cc1)c1ccc2ccccc2c1 (stereo not drawn)
65
4. Fc1cccc(F)c1C1=NC(c2ccc(COCc3cccs3)cc2)CO1 (stereo not drawn)
75
5. Fc1cccc(F)c1C1=NC(c2ccc(COc3cccnc3)cc2)CO1 (stereo not drawn)
80
6. COc1ccc2ccn(Cc3ccc(C4COC(c5c(F)cccc5F)=N4)cc3)c2c1 (stereo not drawn)
40
7. Fc1cccc(F)c1C1=NC(c2ccc(COCC#Cc3ccccc3)cc2)CO1 (stereo not drawn)
80
8. Fc1ccc2ccn(Cc3ccc(C4COC(c5c(F)cccc5F)=N4)cc3)c2c1 (stereo not drawn)
30
9. Fc1ccc2c(ccn2Cc2ccc(C3COC(c4c(F)cccc4F)=N3)cc2)c1 (stereo not drawn)
85

These measurements were taken from patent US12588678B2.
